Below: a set of entries, each annotated with reported log10 koff.
# measured-target: monomeric alpha-synuclein (UniProt P37840 1-140)
# assay-name: SPR, captured mAb
// units: s⁻¹ (pre-log); metric: koff; scale: log10

The binder listed as ACI-8033-6402E2-Ab2 (antibody, V domains shown, mouse hybridoma mAb; VH/VL only; also called 6402E2E4) VH: EVQLQHSGPDLVKPGASVKISCKASGYTFTDYYMNWVKQSHGKSLEWIGDINPNNGDTTYNQKFKGRATLTVDKSSSTAYMELRSLTSEDSAVYYCARSGSNYYAMDSWGQGTSVTVSS VL: DIVMSQSPSSLAVSAGERVTMSCKSSQSLFNSRTRKNYLAWYQQKPGQSPKLLIYWASTRESGVPDRFTGSGSGTDFSLNISSVQAEDLAVYYCKQSYDLWTFGGGTKLEIK shows log10 koff equal to -3.19

Measured log10 koff of ACI-7089-4415G5-Ab1 (antibody, V domains shown, mouse hybridoma mAb; VH/VL only; also called 4415G5A11) VH: QVQLQQSGAELARPGASVKVSCKASGYTFTSSGISWLKHRTGQGLEWIGDIYPRSGNTYYNEKFKDKATLTADKSSSTAYMELRSLTSEDSAVYFCASGNYWGQGTTLTVSA VL: DIVITQDDLSNPVTSGESVSISCRSSKSLLYKDGKTYLNWFLQRPGQSPQLLIYLMSTRASGVSDRFSGSGSGTDFTLEISRVKAEDVGVYYCQQLLEYPLTFGAGTKLELK : -3.85

Entry under test: ACI-8032-6301C8-Ab2 (antibody, V domains shown, mouse hybridoma mAb; VH/VL only; also called 6301C8G12) VH: QVQLQQSGAELARPGTSVKLSCKASGYTFTTYGISWVKQRTGQGLEWIGEIYPRSGNTYYNEKFKGKATLTADKPSSTAYMELRSLTSEDSAVYFCASESYYGDYAWYFDVWGTGTTVTVSS VL: DVLMTQIPLSLPVSLGDQASISCRSSQSIVHSNGNTYLEWHLQKPGQSPKLLIYEVSNRFSGVPDRFSGSGSGTDFTLNISRVEAEDLGVYYCFQGSHVPPTFGGGTKLEIK . Its log10 koff was -2.48
